Quick list: growth per entry.
- System: HL-60(TB) leukemia
- ASSAY TEXT: NCI-60 one-dose screen, 48 h (100 = growth as untreated, 0 = no growth, -100 = all killed)
- MEASUREMENT SETUP: 10 µM unless noted
About 83,000 compounds went through this panel and 20% of them were active in at least one assay; those are over-represented in the sample as a whole.
Supply the numeric figure in %, leaving out any unit text.

Please review the entries below; each comes with its answer.
COMPOUND	MEASURED VALUE
C[C@]12CCC(=O)CC1CC[C@@H]1C2CC[C@@]2(C)C1CC[C@@H]2OC(=O)CC[Se][Se]CCC(=O)O[C@H]1CCC2[C@@H]3CCC4CC(=O)CC[C@]4(C)C3CC[C@@]21C (some centres undefined)	9.16
CCO/C=N/C1=C(C#N)C(c2ccc(Cl)cc2)c2c(c3ccc(C)cc3[nH]c2=O)O1 (centres undefined)	88.6
Nc1cccc(C(=O)Nc2ccc3c(O)c(N=Nc4ccc(N=Nc5ccc(S(=O)(=O)O)cc5)cc4)c(S(=O)(=O)O)cc3c2)c1	88.7
ClC1C2CC(c3ccccc32)C1Cl (centres undefined)	131

What value of growth has been reported for the following compound? CN(C)c1ccc(/C=C/C2=[N+](C)c3ccccc3C2(C)C)cc1 -18.4

Consider the compound shown here: O=[N+]([O-])c1ccc(-c2ncc(-c3ccc(O)cc3O)[nH]2)cc1 What is its recorded growth? 145

Entry under review: Cc1ccc(C(=O)Nc2cccc(C#Cc3cccc4[nH]nc(N)c34)c2)cc1C(F)(F)F . Reported growth? 19.2

Given the entry COc1cc(/C=C/C(=O)c2cccc(-n3cc(-c4ccccc4)[nH]c3=O)c2)ccc1O , report its measured growth. 3.49

What does the record list as growth for Fc1cc(-c2ncc(-c3cc(F)c(F)c(F)c3)c(NC3CCCCCC3)n2)cc(F)c1F ? 97.4

Need growth of Cc1cc(=O)cc(C)n1-c1ccccc1 , thanks. 103

Given CC1=NN(C(=O)c2nn(-c3ccc(Cl)cc3)cc2O)C(=O)C1 , state its recorded growth. 5.71

So what does the record say about growth for O=[n+]1ccn([O-])c2ccccc21 ? 118

Sample CCN(CC)c1ccc2cc(C(Nc3ccc(Br)c(C(F)(F)F)c3)c3nnnn3C(C)(C)C)c(=O)oc2c1 (centres undefined) — what was its growth? 93

Name the recorded growth for CC1(C(=O)O)CCC(N)(C(=O)O)C1(C)C (centres undefined) . 101

If you can, please state the reported growth value of O=[N+]([O-])c1ccc(Oc2cccc3c(Oc4ccc([N+](=O)[O-])cc4[N+](=O)[O-])cccc23)c([N+](=O)[O-])c1 . 99.9

----------
- System: A498 renal
- ASSAY TEXT: NCI-60 one-dose screen, 48 h (100 = growth as untreated, 0 = no growth, -100 = all killed)
- MEASUREMENT SETUP: 10 µM unless noted
This is part of a sample that, as a whole, favours compounds with a hit. Of some 83,000 tested, about 20% had one in any assay. Active and inactive are the calls of the source. Rule for the calls: active = growth percent below 10; inactive = the rest.
PROPERTY LABEL: growth

These recorded examples may help you get a feel for the data.
COMPOUND	growth
CCN(CC)CCOc1c(C(C)C)cccc1C(C)C	82.1% (inactive)
O=C(CCl)NCNC(=O)CCl	109% (inactive)
c1ccc(CCN2CCCCC2Cc2ccccc2)cc1 (centres undefined)	89.5% (inactive)

What growth value was documented for this compound, Cc1cc([N+](=O)[O-])c(Cl)cc1NS(=O)(=O)c1ccccc1 ? 67.2% (inactive)

Given [N-]=[N+]=NC(C(=O)O)c1ccccc1 (centres undefined) , state its recorded growth. 101% (inactive)

What value of growth has been recorded for this entry: CN=C(NN)NN 92.4% (inactive)
